target: GST-tagged truncated human mutant G2019S LRRK2 (Homo sapiens, UniProt Q5S007, G2019S); test: LRRK2 G2019S Km ATP LanthaScreen assay; type: biochemical; details: 134 μM ATP (Km ATP), LRRKtide substrate, mean IC50 values; read-out: LRRK2 pIC50 (converted)
readout.kind: IC50
Reply with the number and its unit after it.

[in] // IC50 lookup, key: OC1CCN(c2cc3nc(Nc4cnn(C5CC5)c4)ncc3cc2Cl)CC1
[out] 1.44 nM

[in] Name the recorded IC50 for OC1COCC1N1CCN(c2cc3nc(Nc4cnn(C5CC5(F)F)c4Cl)ncc3cc2Cl)CC1 (single isomer, unassigned) [Ex-6.29] .
[out] 15.2 nM

[in] // returns reported IC50 for input C[C@H]1CN(c2cc3nc(Nc4cnn(C5(C)CC5)c4Cl)ncc3cc2Cl)CCN1C1COC1
[out] 1.91 nM

[in] What does the record list as IC50 for CC1(N2CCN(c3cc4nc(Nc5cnn(C6(C)CC6)c5Cl)ncc4cc3Cl)CC2)CCOC1 (stereo not drawn) ?
[out] 3.04 nM

[in] So what's the measured IC50 for this one? CC1(N2CCN(c3cc4nc(Nc5cnn(C6CC6)c5Cl)ncc4cc3Cl)CC2)COCC1O (single isomer, unassigned) [Ex-1.46]
[out] 0.625 nM

[in] Entry CC1(N2CCN(c3cc4nc(Nc5cnn(C(C)(C)C)c5)ncc4cc3Cl)CC2)COC1 : reported IC50 = ?
[out] 0.792 nM

[in] Please report the recorded IC50 for CCn1ncc(Nc2ncc3ccc(N4C(=O)C5CCC4C5)cc3n2)c1C (stereo not drawn) [Ex-7.20] .
[out] 11.3 nM

[in] May I ask what IC50 has been recorded for OC1C2CC1CN(c1cc3nc(Nc4cnn(C5CC5)c4)ncc3cc1Cl)C2 (stereo not drawn) ?
[out] 4.52 nM

[in] Fill blank: measured IC50 of the molecule Cc1c(Nc2cc3cc(N4CCN(C5(C)COCC5O)CC4)c(Cl)cc3cn2)cnn1C1CC1 (single isomer, unassigned) is ____.
[out] 1.35 nM

[in] Item Cc1cc2cnc(Nc3cnn(C45CC(C4)C5)c3Cl)nc2cc1N1CCN(C2COCC2O)CC1 (single isomer, unassigned) [Ex-5.13] has what recorded IC50?
[out] 1.05 nM

[in] What does the record list as IC50 for Cc1c(Nc2ncc3ccc(N4C(=O)OCC4C4CC4)cc3n2)cnn1C1CCOCC1 (single isomer, unassigned) [Ex-7.13] ?
[out] 11.4 nM

[in] Returns the measured IC50 for the input molecule. Input: Cc1c(Nc2ncc3cc(Cl)c(N4CCC(C)(O)C(C)C4)cc3n2)cnn1C1CC1 (single isomer, unassigned) [Ex-3.47]
[out] 10.2 nM

[in] What value of IC50 has been recorded for this entry: Cc1cc2cnc(Nc3cnn(C4CC4(F)F)c3Cl)nc2cc1N1CCN([C@H]2COC[C@H]2O)CC1 (single isomer, unassigned)
[out] 0.105 nM

[in] Query: IC50; subject: CCn1ncc(Nc2ncc3ccc(N4C(=O)OCC4C4CC4)cc3n2)c1C (single isomer, unassigned) [Ex-7.16]
[out] 0.625 nM

[in] For the molecule Cn1cc(Nc2ncc3ccc(N4C(=O)C5CCC4C5)cc3n2)c(C(F)(F)F)n1 (stereo not drawn) [Ex-7.10] , what IC50 is on record?
[out] 5.14 nM
